// note: pIC50 values for UniProt Q13464 were reported in different studies
pIC50: −log10 of the molar value.
Measured property: pIC50

Below: 8 molecules and their reported pIC50.
Molecule: NC(=O)COc1cccc(-c2nc(Nc3ccc4[nH]ncc4c3)c3ccccc3n2)c1
Target under test: UniProt Q13464
pIC50: 5.59

Molecule: COc1cccc(C2(NC(=O)c3cccc(-c4ccc5[nH]nc(C)c5c4)c3)CCNC2)c1 (stereo not drawn)
Target under test: UniProt Q13464
pIC50: 6.97

Molecule: CNCC(NC(=O)c1cc(-c2ccc3[nH]nc(C)c3c2)ccn1)c1cccc(OC)c1 (stereo not drawn)
Target under test: UniProt Q13464
pIC50: 6.71

Molecule: CC1=C(C(=O)Nc2ccc3[nH]ncc3c2)C(c2ccc(F)c(C(=O)NCc3cccc(F)c3)c2)NC(=O)N1 (stereo not drawn)
Target under test: UniProt Q13464
pIC50: 7.68

Molecule: COc1cc(C(=O)NC(CO)c2ccccc2F)ccc1-c1cn[nH]c1 (stereo not drawn)
Target under test: UniProt Q13464
pIC50: 7.93

Molecule: COc1cc(NC(=O)[C@H](N)Cc2cccc(C(F)(F)F)c2)ccc1-c1cn[nH]c1
Target under test: UniProt Q13464
pIC50: 7.30

Molecule: COc1cc(C(=O)NCc2cccc(-c3ccccc3)c2)ccc1-c1cn[nH]c1
Target under test: UniProt Q13464
pIC50: 6.48

Molecule: COc1cccc(OC)c1CNC(=O)Cc1cc(C2NC(=O)NC(C)=C2C(=O)Nc2ccc3[nH]ncc3c2)ccc1F (stereo not drawn)
Target under test: UniProt Q13464
pIC50: 6.70

(a) O=C(Oc1ccccc1)N1Cc2ccc(-c3nccc(Nc4ccc5[nH]ncc5c4)n3)cc2C1
(b) COC(=O)C[C@@H](NC(=O)c1ccc(-c2cn[nH]c2)c(C)c1)c1ccccc1
## Task Just tell me: smaller pIC50 value, a or b ? Refer to your chosen entry by its label in the reply.
## Result a

(A) O=C(Cc1ccc(-c2n[nH]c(=O)c3ccccc23)cc1)Nc1nc2ccccc2o1
(B) COc1cccc(C(CCN(C)C)NC(=O)c2cccc(-c3ccc4[nH]ncc4c3)c2)c1 (stereo not drawn)
## Task Just tell me: smaller pIC50 value, A or B ? Refer to your chosen entry by its label in the reply.
## Result A
(A: 6.14, B: 6.78)

(1) COc1ccc(F)c(CNC(=O)Nc2cc(-c3ccncc3)[nH]n2)c1
(2) COc1cc(C(=O)NCC(O)c2cccc(O)c2)ccc1-c1cn[nH]c1 (stereo not drawn)
## Task // compare measured pIC50, left 1 , right 2 , return larger Refer to your chosen entry by its label in the reply.
## Result 2
(2: 7.38, 1: 6.00)

(A) COc1cc(-c2cn[nH]c2)ccc1C(=O)N[C@H](CO)Cc1ccccc1
(B) O=C(Nc1ccc(-c2ccncc2)cc1)N[C@H](CO)c1ccccc1C(F)(F)F
(C) COc1cccc(C2(NC(=O)c3cccc(-c4ccc5[nH]nc(F)c5c4)c3)CCNC2)c1 (stereo not drawn)
(D) O=C(NC1CCN(CC(F)(F)F)CC1)c1cccc([C@@H](CO)NC(=O)c2ccc(-c3ccncc3)cc2)c1
## Task // ranking: key=pIC50, reverse=True Rank the items, then write their labels in that order.
## Result D, A, B, C
(D: 8.72, A: 8.01, B: 7.60, C: 5.89)
